Read-out: alkyl and aryl transferase (GSTA2), GSTA2 (gene 2939)
measurement_notes: CLD_GSTA2_48hr: CellzDirect (CLD) Gene Expression Assay for alkyl and aryl transferase (GSTA2) at 48 hours (AID 2283708);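 further: active means mRNA induction above DMSO vehicle baseline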
Results filed as inconclusive are left out. Activity calls are given as the source filed them. How the source made its calls: active means hit-call score of the fitted dose curve at least 0.9, where 1 is the maximum; inconclusive means response in the unintended direction; inactive means score below 0.9.
The reply should be one of these categories: active, inactive

For CCCCC(C#N)(Cn1cncn1)c1ccc(Cl)cc1 (stereo not given) , which call appears in the assay record?
inactive

For `O=C(O)c1c(Cl)ccc2cc(Cl)cnc12` , which call appears in the assay record?
inactive

For `CS(=O)(=O)c1cc(C(F)(F)F)ccc1C(=O)c1cnoc1C1CC1` , which call appears in the assay record?
inactive

For `COP(=S)(OC)Oc1ccc([N+](=O)[O-])c(C)c1` , which call appears in the assay record?
inactive

For `CCCCOCN(C(=O)CCl)c1c(CC)cccc1CC` , which call appears in the assay record?
active

For `CSC(=O)c1c(C(F)F)nc(C(F)(F)F)c(C(=O)SC)c1CC(C)C` , which call appears in the assay record?
active

For `N#CN=C1SCCN1Cc1ccc(Cl)nc1` , which call appears in the assay record?
inactive

For CCCC(=NOCC)C1=C(O)CC(CC(C)SCC)CC1=O (stereo not given) , which call appears in the assay record?
inactive

For `COc1ccc(-c2ccccc2)cc1NNC(=O)OC(C)C` , which call appears in the assay record?
inactive

For CC(C)(C)C(=O)C(Oc1ccc(Cl)cc1)n1cncn1 (stereo not given) , which call appears in the assay record?
inactive

For `N#Cc1c(Cl)cccc1Cl` , which call appears in the assay record?
inactive

For COCC(C)N(C(=O)CCl)c1c(C)csc1C (stereo not given) , which call appears in the assay record?
active

For O=C1C2CC=CCC2C(=O)N1SC(Cl)(Cl)Cl (stereo not given) , which call appears in the assay record?
inactive

For `OC(c1ccc(Cl)cc1)(c1ccc(Cl)cc1)C(Cl)(Cl)Cl` , which call appears in the assay record?
inactive

For `Cc1ccc(N=CN(C)C=Nc2ccc(C)cc2C)c(C)c1` , which call appears in the assay record?
inactive

For `CS(=O)(=O)c1ccc(C(=O)C2C(=O)CCCC2=O)c([N+](=O)[O-])c1` , which call appears in the assay record?
inactive

For `C=CCOC(=O)C(C)(C)OC(=O)c1cc(-n2c(=O)cc(C(F)(F)F)n(C)c2=O)ccc1Cl` , which call appears in the assay record?
inactive

For CC(C)C1(C)N=C(c2ncccc2C(=O)O)NC1=O (stereo not given) , which call appears in the assay record?
inactive

For `C=C(C)CN(CC)c1c([N+](=O)[O-])cc(C(F)(F)F)cc1[N+](=O)[O-]` , which call appears in the assay record?
inactive

For `CCSC(=O)N1CCCCCC1` , which call appears in the assay record?
inactive

For CC(C)=CC1C(C(=O)OCc2coc(Cc3ccccc3)c2)C1(C)C (stereo not given) , which call appears in the assay record?
inactive

For `COP(=S)(OC)SCn1nnc2ccccc2c1=O` , which call appears in the assay record?
inactive

For `COC(=O)NC(=S)Nc1ccccc1NC(=S)NC(=O)OC` , which call appears in the assay record?
inactive

For `COc1cc(Cl)c(OC)cc1Cl` , which call appears in the assay record?
inactive

For `O=c1n(Cl)c(=O)n(Cl)c(=O)n1Cl` , which call appears in the assay record?
inactive
